experiment: Effect of temperature (and pH) on the stability of the solution (purity); assay type: physicochemical; conditions: 7% solution in water, pH 7.0, day 21, 40° C.
Would you kindly list Purity(%) at day 21 (40° C.) for each of these molecules?
Give bare numbers, in %.

Sample records with Purity(%) at day 21 (40° C.):
INSERT INTO assay_data (molecule, quantitative_result) VALUES
  ('CCN(CC)CCOC(=O)COc1nn(Cc2ccccc2)c2ccccc12.Cl', 7.1),
  ('CCN(CC)CCOC(=O)COC(=O)Cc1c(C)n(C(=O)c2ccc(Cl)cc2)c2ccc(OC)cc12.Cl', 11.2),
  ('CCN(CC)CCOC(=O)CC1=C(C)C(=Cc2ccc([S+](C)[O-])cc2)c2ccc(F)cc21.Cl (centres unmarked)', 5.4);

List reported Purity(%) at day 21 (40° C.) for each of these molecules:
1. CCN(CC)CCOC(=O)CCc1nc(-c2ccccc2)c(-c2ccccc2)o1.Cl
2. CCN(CC)CCOC(=O)C(C)c1ccc2oc(-c3ccc(Cl)cc3)nc2c1.Cl (centres unmarked)

A:
1: 7.1; 2: 7.4

---

experiment: Effect of temperature (and pH) on the stability of the solution (purity); type: physicochemical; settings: 7% solution in water, pH 1.0, day 21, 5° C.
assay metric: Purity(%) at day 21 (5° C.)
Give bare numbers, in %.

INSERT INTO results (compound, quantitative_result) VALUES
  ('CCN(CC)CCOC(=O)COC(=O)Cc1c(C)n(C(=O)c2ccc(Cl)cc2)c2ccc(OC)cc12.Cl', 91.9);

List reported Purity(%) at day 21 (5° C.) for each of these compounds:
1. CCN(CC)CCOC(=O)CC1=C(C)C(=Cc2ccc([S+](C)[O-])cc2)c2ccc(F)cc21.Cl (stereo not drawn)
2. CCN(CC)CCOC(=O)CCc1ccc2cc(OC)ccc2c1.Cl

A:
91.1
92.7

List reported Purity(%) at day 21 (5° C.) for each of these compounds:
1. CCN(CC)CCOC(=O)COc1nn(Cc2ccccc2)c2ccccc12.Cl
2. CCN(CC)CCOC(=O)C(C)c1ccc2oc(-c3ccc(Cl)cc3)nc2c1.Cl (stereo not drawn)
3. CCN(CC)CCOC(=O)C(C)c1ccc(-c2ccccc2)c(F)c1.Cl (racemic)

A:
[89.9, 92.9, 94.0]

List reported Purity(%) at day 21 (5° C.) for each of these compounds:
1. CCN(CC)CCOC(=O)CCc1nc(-c2ccccc2)c(-c2ccccc2)o1.Cl
2. CCN(CC)CCOC(=O)Cc1ccc(C(=O)c2ccc(C)cc2)n1C.Cl
3. CCN(CC)CCOC(=O)Cc1c(C)n(C(=O)c2ccc(Cl)cc2)c2ccc(OC)cc12.Cl

A:
1: 90.1; 2: 90.3; 3: 92.3

---

Would you kindly list Purity at Day 14 for each of these compounds?
experiment: Effect of concentration on the stability of the solution (purity over time); conditions: 7 wt %; in water at 25° C.

Sample records with Purity at Day 14:
INSERT INTO results (compound, result) VALUES
  ('CCN(CC)CCOC(=O)Cc1sc(-c2ccccc2)nc1-c1ccc(Cl)cc1.Cl', '98.2%'),
  ('CCN(CC)CCOC(=O)CCc1ccc2cc(OC)ccc2c1.Cl', '98.0%'),
  ('CCN(CC)CCOC(=O)CC1=C(C)C(=Cc2ccc([S+](C)[O-])cc2)c2ccc(F)cc21.Cl (stereo not shown)', '97.1%');

List reported Purity at Day 14 for each of these compounds:
1. CCN(CC)CCOC(=O)C(C)c1ccc2oc(-c3ccc(Cl)cc3)nc2c1.Cl (stereo not shown)
2. CCN(CC)CCOC(=O)Cc1ccc(C(=O)c2ccc(C)cc2)n1C.Cl
3. CCN(CC)CCOC(=O)Cc1c(C)n(C(=O)c2ccc(Cl)cc2)c2ccc(OC)cc12.Cl
4. CCN(CC)CCOC(=O)CCc1nc(-c2ccccc2)c(-c2ccccc2)o1.Cl

A:
["98.0%", "97.2%", "98.0%", "98.0%"]

---

assay: Effect of temperature (and pH) on the stability of the solution (purity); format: physicochemical; details: 7% solution in water, pH 4.0, day 21, 5° C.
assay metric: Purity(%) at day 21 (5° C.)
Give bare numbers, in %.

List reported Purity(%) at day 21 (5° C.) for each of these compounds:
1. CCN(CC)CCOC(=O)C(C)c1ccc2oc(-c3ccc(Cl)cc3)nc2c1.Cl (centres unmarked)
2. CCN(CC)CCOC(=O)CCc1ccc2cc(OC)ccc2c1.Cl
3. CCN(CC)CCOC(=O)CC1=C(C)C(=Cc2ccc([S+](C)[O-])cc2)c2ccc(F)cc21.Cl (centres unmarked)
4. CCN(CC)CCOC(=O)COc1nn(Cc2ccccc2)c2ccccc12.Cl
5. CCN(CC)CCOC(=O)Cc1ccc(C(=O)c2ccc(C)cc2)n1C.Cl
6. CCN(CC)CCOC(=O)CCc1nc(-c2ccccc2)c(-c2ccccc2)o1.Cl
7. CCN(CC)CCOC(=O)Cc1c(C)n(C(=O)c2ccc(Cl)cc2)c2ccc(OC)cc12.Cl

A:
[98.0, 98.2, 97.4, 97.6, 96.8, 97.9, 98.1]

Q: Please report Purity(%) at day 21 (5° C.) for the following compound: "CCN(CC)CCOC(=O)COC(=O)Cc1c(C)n(C(=O)c2ccc(Cl)cc2)c2ccc(OC)cc12.Cl"
A: 98.4

---

Would you kindly list Purity at Day 7 for each of these molecules?
experiment: Effect of concentration on the stability of the solution (purity over time); conditions: 20 wt %; in water at 25° C.

Sample records with Purity at Day 7:
INSERT INTO assay_data (molecule, assay_metric, result) VALUES
  ('CCN(CC)CCOC(=O)Cc1ccc(C(=O)c2ccc(C)cc2)n1C.Cl', 'Purity at Day 7', '97.5%'),
  ('CCN(CC)CCOC(=O)CCc1ccc2cc(OC)ccc2c1.Cl', 'Purity at Day 7', '98.2%'),
  ('CCN(CC)CCOC(=O)Cc1sc(-c2ccccc2)nc1-c1ccc(Cl)cc1.Cl', 'Purity at Day 7', '98.5%'),
  ('CCN(CC)CCOC(=O)Cc1c(C)n(C(=O)c2ccc(Cl)cc2)c2ccc(OC)cc12.Cl', 'Purity at Day 7', '98.5%');

List reported Purity at Day 7 for each of these molecules:
1. CCN(CC)CCOC(=O)CC1=C(C)C(=Cc2ccc([S+](C)[O-])cc2)c2ccc(F)cc21.Cl (stereo not shown)
2. CCN(CC)CCOC(=O)C(C)c1ccc2oc(-c3ccc(Cl)cc3)nc2c1.Cl (stereo not shown)
3. CCN(CC)CCOC(=O)CCc1nc(-c2ccccc2)c(-c2ccccc2)o1.Cl

A:
["97.6%", "98.3%", "98.5%"]

---

assay: Effect of temperature (and pH) on the stability of the solution (purity); type: physicochemical; conditions: 7% solution in water, pH 4.3, day 0
Would you kindly list Purity(%) at day 0 for each of these compounds?
Write down the value, and be sure its unit follows.

Sample records with Purity(%) at day 0:
INSERT INTO results (compound, assay_metric, result) VALUES
  ('CCN(CC)CCOC(=O)c1cc(-c2ccc(F)cc2F)ccc1OC(C)=O.Cl', 'Purity(%) at day 0', '99.1%'),
  ('CCN(CC)CCOC(=O)COC(=O)Cc1c(C)n(C(=O)c2ccc(Cl)cc2)c2ccc(OC)cc12.Cl', 'Purity(%) at day 0', '98.8 ± 0.2%'),
  ('CCN(CC)CCOC(=O)Cc1ccc(C(=O)c2ccc(C)cc2)n1C.Cl', 'Purity(%) at day 0', '98.1 ± 0.2%');

API: the following record is the query input.
Q: Please report Purity(%) at day 0 for the following compound: CCN(CC)CCOC(=O)CC1=C(C)C(=Cc2ccc([S+](C)[O-])cc2)c2ccc(F)cc21.Cl (stereo not shown)
A: 97.7 ± 0.2%

---

assay: Effect of concentration on the stability of the solution (purity over time); conditions: 3 wt %; in water at 25° C.
assay metric: Purity at Day 7 (%)
Numbers only, in %.

INSERT INTO measurements (molecule, assay_metric, quantitative_result) VALUES
  ('CCN(CC)CCOC(=O)Cc1ccc(C(=O)c2ccc(C)cc2)n1C.Cl', 'Purity at Day 7', 96.2),
  ('CCN(CC)CCOC(=O)CC1=C(C)C(=Cc2ccc([S+](C)[O-])cc2)c2ccc(F)cc21.Cl (stereo not shown)', 'Purity at Day 7', 96.3),
  ('CCN(CC)CCOC(=O)C(C)c1ccc2oc(-c3ccc(Cl)cc3)nc2c1.Cl (stereo not shown)', 'Purity at Day 7', 97.0),
  ('CCN(CC)CCOC(=O)Cc1sc(-c2ccccc2)nc1-c1ccc(Cl)cc1.Cl', 'Purity at Day 7', 96.2);

List reported Purity at Day 7 for each of these molecules:
1. CCN(CC)CCOC(=O)CCc1ccc2cc(OC)ccc2c1.Cl
2. CCN(CC)CCOC(=O)Cc1c(C)n(C(=O)c2ccc(Cl)cc2)c2ccc(OC)cc12.Cl
3. CCN(CC)CCOC(=O)CCc1nc(-c2ccccc2)c(-c2ccccc2)o1.Cl

A:
1: 97.0; 2: 97.2; 3: 95.1
